System: Triticum aestivum (spring)
Assay: Post-emergence herbicidal effect and crop plant compatibility
Type: in vivo
Conditions: 320 g/ha, visual scoring after about 3 weeks
# post-emergence efficacy TRZAS annotations
Assay Endpoint: post-emergence efficacy TRZAS (%)

>>> assay_value("CC(=O)c1cnc(N[C@@H]2CCCc3ccccc32)nc1C")
0
>>> assay_value("Cc1ccc2c(c1)[C@H](Nc1ncc3c(n1)CCCC3=O)[C@@H](C)C2")
10
>>> assay_value("Cc1cccc2c1OCC[C@H]2Nc1ncc2c(n1)CCCC2=O")
20
>>> assay_value("Cc1ccc2c(c1)[C@H](Nc1ncc3c(n1)CC(C(F)(F)F)CC3=O)[C@@H](C)C2 (stereo partly drawn)")
10
>>> assay_value("CC1(C)CC(=O)c2cnc(NC3CCOc4ccccc43)nc2C1 (racemic)")
20
>>> assay_value("O=C1CCCc2nc(N[C@@H]3CCCc4ccccc43)ncc21")
0
>>> assay_value("CC(C)C1CC(=O)c2cnc(N[C@@H]3CCc4ccccc43)nc2C1 (stereo partly drawn)")
20
>>> assay_value("Cc1ccc2c(c1)[C@H](Nc1ncc3c(n1)CC(C)(C)CC3=O)[C@@H](C)C2")
10
>>> assay_value("Cc1ccc2c(c1)[C@H](Nc1ncc3c(n1)CC(C(C)C)CC3=O)[C@@H](C)C2 (stereo partly drawn)")
0

---

Tested on: Zea mays
Assay: Pre-emergence herbicidal effect and crop plant compatibility
Type: in vivo
Conditions: 80 g/ha, 3 weeks
Assay Endpoint: ZEAMX herbicidal activity in percent (%)

>>> assay_value("CC1CC(=O)c2cnc(N[C@@H]3CCCc4ccccc43)nc2C1 (some centres unmarked)")
0
>>> assay_value("COc1ccc2c(c1)CCC2Nc1ncc(C(C)=O)c(C)n1 (racemic)")
20
>>> assay_value("Cc1ccc2c(c1)[C@H](Nc1ncc3c(n1)COCC3=O)[C@@H](C)C2")
0
>>> assay_value("CC1CCc2ccccc2C1Nc1ncc2c(n1)CC(C)(C)CC2=O (racemic)")
0
>>> assay_value("Cc1cccc2c1OCC[C@H]2Nc1ncc2c(n1)CCCC2=O")
0

---

Tested on: Zea mays
Assay: Pre-emergence herbicidal effect and crop plant compatibility
Format: in vivo
Details: 320 g/ha, 3 weeks
Examples of molecules with documented ZEAMX herbicidal activity in percent follow.
Assay Endpoint: ZEAMX herbicidal activity in percent (%)

>>> assay_value("Cc1ccc2c(c1)[C@H](Nc1ncc3c(n1)CC(c1ccc(F)cc1)CC3=O)[C@@H](C)C2 (stereo partly drawn)")
10
>>> assay_value("Cc1ccc2c(c1)[C@H](Nc1ncc3c(n1)CCCC3=O)[C@@H](C)C2")
0
>>> assay_value("O=C1CC(C(F)(F)F)Cc2nc(N[C@@H]3CCCc4ccccc43)ncc21 (stereo partly drawn)")
10
>>> assay_value("CC1CCc2ccccc2C1Nc1ncc2c(n1)CC(C)(C)CC2=O (racemic)")
0
>>> assay_value("Cc1ccc2c(c1)[C@H](Nc1ncc3c(n1)CC(C(F)(F)F)CC3=O)[C@@H](C)C2 (stereo partly drawn)")
0
>>> assay_value("CC(=O)c1cnc(NC2CCOc3c(C)cccc32)nc1 (racemic) [1.8]")
0
>>> assay_value("Cc1ccc2c(c1)[C@H](Nc1ncc3c(n1)CC(c1ccccc1F)CC3=O)[C@@H](C)C2 (stereo partly drawn)")
0
>>> assay_value("O=C1CCCc2nc(NC3CCc4ccccc43)ncc21 (racemic)")
20
>>> assay_value("Cc1ccc2c(c1)C(Nc1ncc3c(n1)CCCC3=O)CO2 (racemic)")
20
>>> assay_value("CC1(C)CC(=O)c2cnc(N[C@@H]3CCCc4ccccc43)nc2C1")
0
>>> assay_value("COc1ccc2c(c1)CCC2Nc1ncc(C(C)=O)c(C)n1 (racemic)")
20
>>> assay_value("CC(=O)c1cnc(NC2CCOc3c(C)cc(F)cc32)nc1C (racemic)")
10
>>> assay_value("CC(=O)c1cnc(NC2CCOc3c(C)cccc32)nc1 (racemic) [1.7]")
20
>>> assay_value("CC(C)C1CC(=O)c2cnc(N[C@@H]3CCc4ccccc43)nc2C1 (stereo partly drawn)")
0
>>> assay_value("Cc1cccc2c1OCC[C@H]2Nc1ncc2c(n1)CCCC2=O")
10
